assay: Phase I combination study: pharmacokinetics; format: in vivo, human; settings: human, in vivo, oral, Cmax range, selumetinib 100 mg QD, combination MTD cohort
QUANTITY MEASURED: Cmax

Need Cmax, item Cn1cnc2c(F)c(Nc3ccc(Br)cc3Cl)c(C(=O)NOCCO)cc21 554 to 2540 ng/mL

###

assay: Phase I combination study: pharmacokinetics; format: in vivo, human; conditions: human, in vivo, oral, Mean Cmax, selumetinib 100 mg QD, combination MTD cohort
QUANTITY MEASURED: Cmax (ng/mL)
Unit ng/mL implied. Number only.

Need Cmax, item Cn1cnc2c(F)c(Nc3ccc(Br)cc3Cl)c(C(=O)NOCCO)cc21 1140

Values from paper PMC4335074
